experiment: Gli-Sufu pathway antagonists, primary screen, luciferase luminescence, Sufu-KO-LIGHT cells, uHTS (AID 588413); conditions: Sufu-KO-LIGHT fibroblasts, Gli luciferase reporter luminescence; at 5 µM;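 note: 0% = DMSO-treated cells and 100% = wells with medium but no cells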
About 2,500 (0.74%) of roughly 340,000 compounds were called active.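 Rule for the calls: active = inhibition above about 55% (limit read from the data); inactive = the rest.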 The sample holds actives, similar compounds and a random draw of the others, so the mix is not that of the screen.
Outcomes: 1 (yes) = active, 0 (no) = inactive

MOLECULE: Cc1ccc(S(=O)(=O)NCCC(c2ccccc2)c2ccccc2)cc1C(=O)O
LABEL: 0 (no)

MOLECULE: Fc1ccc2[nH]c3c(N4CCN(Cc5ccc6c(c5)OCO6)CC4)ncnc3c2c1
LABEL: 0 (no)

MOLECULE: CCN(CC)S(=O)(=O)c1ccc(OC(C)C)c(N)c1
LABEL: 0 (no)

MOLECULE: Cc1ccc(NC(=O)c2ccc(CSc3ncnc4nc[nH]c34)cc2)c(C)c1
LABEL: 0 (no)

MOLECULE: COc1c(O)ccc2c1CN1CCc3cc4c(cc3C1C2)OCO4 (stereo unspecified)
LABEL: 0 (no)

MOLECULE: O=C(Nc1ccnn1C1CCN(Cc2cccc(OCCO)c2)CC1)C1CCCC1
LABEL: 0 (no)

MOLECULE: CCS(=O)(=O)Nc1cc(C(=O)OC)ccc1C(=O)OC
LABEL: 0 (no)

MOLECULE: CCn1nc(C(=O)Nc2ccc(N3CCOCC3)cc2)c2ccccc2c1=O
LABEL: 0 (no)

MOLECULE: CCOC(=O)C1=C(C)c2ccccc2OC1(C)C(=O)OCC (stereo unspecified)
LABEL: 0 (no)

MOLECULE: CCOC(=O)c1c(C)[nH]c2c1-c1ccccc1C(=O)C2=O
LABEL: 1 (yes)

MOLECULE: CCOC(=O)[C@H]1[C@H]2COc3ccc(Cl)cc3[C@@H]2N2C(=O)c3cc(C)ccc3NC(=O)[C@@]12C
LABEL: 0 (no)

---

experiment: Gli-Sufu pathway antagonists, primary screen, luciferase luminescence, Sufu-KO-LIGHT cells, uHTS (AID 588413); settings: Sufu-KO-LIGHT fibroblasts, Gli luciferase reporter luminescence; at 5 µM; hits give high values;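 note: 0% = DMSO-treated cells and 100% = wells with medium but no cells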
Out of some 340,000 compounds screened, about 2,500 (0.74%) were called active. This is one part of a sample in which actives are shown more often than they occur.
Entries and their inhibition values follow.
ENDPOINT: inhibition (%)

MOLECULE: Cc1cc(C(=O)NC2CC(C)(C)Cc3c2cnn3-c2ccccc2)n[nH]1 (stereo not given)
UNIT_ANNOTATION: %
ASSAY_RESULT: 7.64

MOLECULE: CCn1cc(-c2cc(C(=O)O)on2)c(C)n1
UNIT_ANNOTATION: %
ASSAY_RESULT: -4.15

MOLECULE: O=C1C=C(c2ccnc3cc(Cl)ccc23)C[C@@H](c2ccc3c(c2)OCO3)C1
UNIT_ANNOTATION: %
ASSAY_RESULT: 66.7

MOLECULE: CCCCn1c(SCC(=O)N2CCC(C(=O)OCC)CC2)nc2cc(S(N)(=O)=O)ccc21
UNIT_ANNOTATION: %
ASSAY_RESULT: 6.66

MOLECULE: COc1ccc(C(=O)NC2CC(C)(C)Cc3c2cnn3-c2ccccc2)c(OC)c1 (stereo not given)
UNIT_ANNOTATION: %
ASSAY_RESULT: 14

MOLECULE: O=C1C=C(c2cc(C(F)(F)F)cc(C(F)(F)F)c2)C[C@@H](c2ccc3c(c2)OCO3)C1
UNIT_ANNOTATION: %
ASSAY_RESULT: 6.64

MOLECULE: COc1ccc2cc(C3=CC(=O)C[C@H](c4ccc5c(c4)OCO5)C3)ccc2c1
UNIT_ANNOTATION: %
ASSAY_RESULT: -5.21

MOLECULE: Cn1nccc1C(=O)NC1CCCc2c1cnn2-c1ccccc1F (stereo not given)
UNIT_ANNOTATION: %
ASSAY_RESULT: 77.6

MOLECULE: NS(=O)(=O)c1ccc(CCNC(=O)CCCn2c(SCC(=O)N3CCCC3)nc3ccsc3c2=O)cc1
UNIT_ANNOTATION: %
ASSAY_RESULT: 79.4

MOLECULE: CC1(C)Cc2c(cnn2-c2cccc(F)c2)C(NC(=O)c2cc[n+]([O-])cc2)C1 (stereo not given)
UNIT_ANNOTATION: %
ASSAY_RESULT: -1.99

Data provenance is PubChem BioAssay AID588413.
